Data origin: patent US20100310573A1

- assaySystem: T1, recombinant human CD4 (catalogue number: 514-CD/CF, manufactured by R&D Systems) (human, UniProt P01730 26-390)
- T1 construct: Bought protein (R&D Systems); also called recombinant CD4
- assayProcedure: SPR, Biacore T100; antibody captured on anti-human IgG chip, recombinant human CD4 flowed; 1:1 binding model
measurementName: kon (M⁻¹ s⁻¹)
// return numeric value only (unit: M⁻¹ s⁻¹, not printed)

For orientation, consider the following solved cases.
anti-CD4 chimeric antibody KM4047 (antibody, V domains shown, Variable regions of rat KM4067 joined to the '113F type' human IgG1/IgG3 heavy chain constant region (US2007/0148165) and a human kappa constant region; Expressed in FUT8 knockout CHO cells (0% fucose)) VH: QVKLLQSGAALVKPGASVKMSCKASGYTFTDYWVHWVKQSHGKSLEWIGEIYPNNNTTNFNEKFKGKATLTVDKFTSTAYMELSRLTSEDSAIYYCTRGTVYYGLGYFDHWGQGVMVTVSS VL: DIRMTQSPASLSASLGETVNIECLASEDVYSDLAWYQQKPGKSPQLLIYNANNLQSGVPSRFSGSGSGTRYSLKINSLQSEDVATYFCQQYNNYPPYTFGAGTKLELK	1.33e+06
anti-CD4 chimeric antibody KM4045 (antibody, V domains shown, Variable regions of rat KM4065 joined to a '113F type' heavy chain constant region and a human kappa constant region; In the 113F type, part of the human IgG1 Fc is substituted with human IgG3 Fc (US2007/0148165); Expressed in FUT8 knockout CHO cells (0% fucose)) VH: EVQLVESGGGLVQPGRSMKLSCAASGFTFSNYGMAWVRQAPTKGLEWVATISYDGSITYYRDSVKGRFTISRDHAKSTLYLQMNSLRSEDTATYYCTREEQYSSWYFDFWGPGIMVTVSS VL: DIVLTQSPALAVSLGQRATISCRASQSVSISSHDLMQWYQQKPGQQPKLLIYDAFNLASGIPVRFSGSGSGTDFTLTIDPVQADDIATYYCQQSKDDPYTFGAGTKLELK	360000

### Prompt So what's the measured kon for this one? anti-CD4 human antibody 6G5-1 (antibody, V domains shown) VH: QVQLQQWGAGLLKPSETLSLTCAVYGGSFSGYYWSWIRQPPGKGLEWIGEINHSGSTNYNPSLKSRVTISVDTSKNQFSLKLSSVTAADTAVYYCARVINWFDPWGQGTLVTVSS VL: DIQMTQSPSSVSASVGDRVTITCRASQDISSWLAWYQHKPGKAPKLLIYAASSLQSGVPSRFSGSGSGTDFTLTISSLQPEDFATYYCQQANSFPYTFGQGTKLEIKR
### Response 595000
